biological target: protein-protein interaction between Kras and SOS1 (biotin-tagged human Kras loaded with GDP, His-tagged human SOS1) (Homo sapiens (Human), UniProt P01116, G12D); assay: Protein-protein interaction inhibition between Kras and SOS1 (KrasG12D-SOS PPI) using AlphaScreen; assay type: biochemical; conditions: AlphaScreen; biotin-tagged human Kras loaded with GDP, His-tagged human SOS1; read-out: KRAS G12D-SOS PPI IC50;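 note: kras produced in E. coli, Ni-coupled donor beads and streptavidin acceptor beads, excitation 680 nm with emission detected at 520–620 nm via singlet oxygen transfer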
pIC50: −log10 of the molar value. Numbered stars: 1 amine (or outer) side, 2 acyl side, 3 side chain; on linkers, the order of the positions; unused ones are H or OH. Bridge positions count the residues as written; N and C are the ends. Square brackets hold non-standard residues; d marks the D form. Peptide text beside a SMILES is read from it. * marks the point of attachment. hPhe(3-Cl-4-CF3) = N[C@@H](CCc1ccc(C(F)(F)F)c(Cl)c1)C(=O)O; hPhe(4-CF3) = N[C@@H](CCc1ccc(C(F)(F)F)cc1)C(=O)O; NMePhe(4-Cl) = CN[C@@H](Cc1ccc(Cl)cc1)C(=O)O; NMePhe(4-Me) = CN[C@@H](Cc1ccc(C)cc1)C(=O)O; hPhe(4-Cl) = N[C@@H](CCc1ccc(Cl)cc1)C(=O)O; NMedβ3hAla = C[C@H](CC(=O)[*:2])N(C)[*:1]; Phe(3-Cl) = N[C@@H](Cc1cccc(Cl)c1)C(=O)O; NMe4Pal = CN[C@@H](Cc1ccncc1)C(=O)O; NMeCha = CN[C@@H](CC1CCCCC1)C(=O)O; Hyp = O=C(O)[C@@H]1C[C@@H](O)CN1; NMeChg = CN[C@H](C(=O)O)C1CCCCC1; NMeF = CN[C@@H](Cc1ccccc1)C(=O)O; NMeI = CC[C@H](C)[C@H](NC)C(=O)O; d(β3hL) = CC(C)C[C@@H](N)CC(=O)O; NMeD = CN[C@@H](CC(=O)O)C(=O)O; NMeL = CN[C@@H](CC(C)C)C(=O)O; NMeV = CN[C@H](C(=O)O)C(C)C; d(β3hA) = C[C@@H](N)CC(=O)O; NMeS = CN[C@@H](CO)C(=O)O; NMeA = CN[C@@H](C)C(=O)O; Piperidide = C1CCN(*)CC1; Pyrrolidide = C1CCN(*)C1; dNMeA = CN[C@H](C)C(=O)O; Ac5c = NC1(C(=O)O)CCCC1; Aze = O=C(O)[C@@H]1CCN1; Isopentyl = CC(C)CC*; Sar = CNCC(=O)O; Propyl = CCC*
Assign class by pIC50: not lower than 7 means satisfied; lower than 7 means not satisfied.

molecule	group
CCO[C@@H]1C[C@H]2C(=O)N(C)[C@@H](COCCC(C)C)C(=O)N(C)[C@@H](CC(C)C)C(=O)N[C@H](C(=O)N3CCCC3)CC(=O)N(C)[C@@H](C)C(=O)N[C@@H]([C@@H](C)CC)C(=O)N(C)CC(=O)N(C)CC(=O)N(C)[C@@H](Cc3ccc(Cl)cc3)C(=O)N(C)CC(=O)N[C@@H](Cc3cccc(Cl)c3)C(=O)N2C1 [Compound 925] ([NMeA]I[Sar][Sar][NMePhe(4-Cl)][Sar][Phe(3-Cl)][Hyp](Et)[NMeS](Isopentyl)[NMeL]D-Pyrrolidide; lactam N-11)	not satisfied
CC[C@H](C)[C@@H]1NC(=O)[C@H](CC(C)C)N(C)C(=O)C[C@@H](C(=O)N2CCCCC2)N(C)C(=O)[C@H](C2CCCCC2)N(C)C(=O)C2(CCCC2)NC(=O)[C@H](Cc2ccncc2)N(C)C(=O)[C@H](CCc2ccc(C(F)(F)F)c(Cl)c2)NC(=O)CN(C)C(=O)[C@H](CC2CCCCC2)N(C)C(=O)CN(C)C(=O)CN(C)C1=O [Compound 36] ([NMeL]I[Sar][Sar][NMeCha][Sar][hPhe(3-Cl-4-CF3)][NMe4Pal][Ac5c][NMeChg][NMeD]-Piperidide; lactam N-11)	satisfied
CC[C@H](C)[C@@H]1NC(=O)[C@H](CC(C)C)N(C)C(=O)C[C@@H](CC(C)C)NC(=O)[C@H]([C@@H](C)CC)N(C)C(=O)C2(CCCC2)NC(=O)[C@@H]2CCCN2C(=O)[C@H](CCc2ccc(C(F)(F)F)c(Cl)c2)NC(=O)CN(C)C(=O)[C@H](Cc2ccc(C)cc2)N(C)C(=O)[C@@H]2CCN2C(=O)[C@H](C)N(C)C1=O [Compound 1995] (cyclo([Ac5c][NMeI][d(β3hL)][NMeL]I[NMeA][Aze][NMePhe(4-Me)][Sar][hPhe(3-Cl-4-CF3)]P))	not satisfied
CC[C@H](C)[C@@H]1NC(=O)[C@H](C)N(C)C(=O)C[C@@H](C(=O)N2CCCCC2)N(C)C(=O)[C@H](C(C)C)N(C)C(=O)C2(CCCC2)NC(=O)[C@@H]2CCCN2C(=O)[C@H](CCc2ccc(Cl)cc2)NC(=O)CN(C)C(=O)[C@H](CC2CCCCC2)N(C)C(=O)[C@@H]2CCN2C(=O)[C@H](C)N(C)C1=O [Compound 903] ([NMeA]I[NMeA][Aze][NMeCha][Sar][hPhe(4-Cl)]P[Ac5c][NMeV][NMeD]-Piperidide; lactam N-11)	satisfied
CCCOC[C@H]1C(=O)N2CC[C@H]2C(=O)N(C)[C@@H](CC2CCCCC2)C(=O)N(C)[C@H](C)C(=O)N[C@@H](CCc2ccc(C(F)(F)F)c(Cl)c2)C(=O)N2CCC[C@H]2C(=O)NC2(CCCC2)C(=O)N(C)[C@@H](C(C)C)C(=O)N[C@H](C)CC(=O)N(C)[C@@H](C)C(=O)N[C@@H]([C@@H](C)CC)C(=O)N1C [Compound 2016] (cyclo([Ac5c][NMeV][d(β3hA)][NMeA]I[NMeS](Propyl)[Aze][NMeCha][dNMeA][hPhe(3-Cl-4-CF3)]P))	not satisfied
CC[C@H](C)[C@@H]1NC(=O)[C@H](C)N(C)C(=O)C[C@@H](C)N(C)C(=O)[C@H](CC(C)C)NC(=O)[C@H](Cc2ccccc2)N(C)C(=O)[C@H](CC(C)C)NC(=O)[C@H](CCc2ccc(C(F)(F)F)cc2)NC(=O)CN(C)C(=O)[C@H](Cc2ccc(Cl)cc2)N(C)C(=O)CN(C)C(=O)CN(C)C1=O [Compound 214] (cyclo(I[Sar][Sar][NMePhe(4-Cl)][Sar][hPhe(4-CF3)]L[NMeF]L[NMedβ3hAla][NMeA]))	not satisfied
